meta.source: the supplement of paper PMC9170038

- Tested on: MS2 coat protein
- Protocol Details: apparent KD of MS2 coat protein; designed switch direction (-1 OFF switch, 1 ON switch): -1; higher = weaker reporter binding
- Condition Parameters: Eterna round: R95; input ligand: microRNA oligo, concentration not stated
Would you mind labelling by apparent KD of MS2 coat protein? At or over 20 nM is true, under is false.

Here are 3 sequences together with their reported answers.
Residue Codes	Group
UUUUUCAGGCCAGAUCCUCACAUGAGGAUCACCCAUGUGCUCGUCUGUUUUCGCGCUAGCUUUUUUUUGGUAGGGCU [Level Boss var2-17] (puzzle: Sensor v3, turn-off variant 1)	true
CUCGUGGUGAAGGAUAUCCGCGAGAAAAUAAAAGGAGAAGGUCACACAUGAGGAUCACCCAUGUGAUGAAGAAA [Anesanza] (puzzle: Exclusion 6)	false
AGGUAACAUGAGGAUCACCCAUGUCAGGAUAUCAGUAAGAUGAGAAUAGAGUAGAGUAUGAGAAGGGACUAUAU [Excluse me! 21 - Jieux - Exclusion 1] (puzzle: Exclusion 1)	true

// next entry
Q. Answer whether apparent KD of MS2 coat protein of UUUUUGUGAGGAUAUCAGUAGUAAAUAAAUAAAAUAACUACUGAGAAGGCACAUGAGGAUCACCCAUGUUCUUU [Mat - Exclusion 4 - Mod of Salish - D67] (puzzle: Exclusion 4) is greater than or equal to 20 nM.
A. false

* * *

- Tested on: MS2 coat protein
- Protocol Details: apparent KD of MS2 coat protein; designed switch direction (-1 OFF switch, 1 ON switch): 1; higher = weaker reporter binding
- Condition Parameters: input ligand: none
# apparent KD of MS2 coat protein values compiled below
Give the value in nM but do not write nM after it.

Residue Codes	apparent KD of MS2 coat protein / nM
UAUGAAUUGCAAGGAUAUUGAUAACAUGAGGAUCACCCAUGUAAUUGAUCGAGUUAGAUCAGUUACAAGAAGGUGCUAUUGUUU [JR_SSNG2_Sub037] (Eterna round: R96, puzzle: Same State NG 2)	70
UUAAUGAUGUAAGGAUAUACAUGAGGAAAUCUCGUAGAAGGUACAGGACAUGAGGAUCACCCAUGUGUCGCUCAGAAGAGCGUA [Mat - Same State NG 1 - JL mod - D18] (Eterna round: R96, puzzle: Same State NG 1)	71.2

Q. Return apparent KD of MS2 coat protein (reported value) for this sequence: UUGCUUCUCGUAGGAUAUGUAGGAUAUUCCUACAUGAGGAUCACCCAUGUUCGCAUGGAAGAAGGACAGAAGGACGAUCACCCU [pwkr ssNG2 2FMN + 1F5.10] (Eterna round: R96, puzzle: Same State NG 2)
A. 271

Q. Specify reported apparent KD of MS2 coat protein for the sequence shown: UUGAAGAAUUAAGGAUAUUGAUUACAUAUGUUUAACAUGAGGAUCACCCAUGUGGGUUGCGGUAUCGAGAAGGUAAAUUACUAG [JL SSNG2 1.47] (Eterna round: R96, puzzle: Same State NG 2)
A. 162

Q. Supply measured apparent KD of MS2 coat protein of AUUUGGUAACGAGGAUAUCGUUUUUGUUUUCUUCGAGAAGGCGUUAUUGUUUAUUUCUAUUGUUACAUGAGGAUCACCCAUGUU [JR_SSNG1_Sub056] (Eterna round: R96, puzzle: Same State NG 1) in your reply.
A. 21.7

* * *

- System: MS2 coat protein
- Protocol Details: apparent KD of MS2 coat protein; higher = weaker reporter binding
- Condition Parameters: Eterna round: R107; input ligand: theophylline 2 mM
# reported apparent KD of MS2 coat protein; entries follow
Please reply with the bare figure in nM and do not write the unit itself.

Completed entries (count: 2):
Residue Codes	apparent KD of MS2 coat protein (nM)
AAUGUGAAGGCGGCCGCCACUGAUAAUAGACAUGAGGAUCACCCAUGUAUAAAUCCUCAAUAAGACAGGACCGGGCCAUCUACGU [#25 Exclusion Tryptophan B]	122
UUUACAUGAGGAUCACCCAUGUGCCAUGAUACCAGACAUGAAAAUGUCCCUUGGCAGCAUGAGUGAAGCGUCGGGAAACCGACGC [Kninicky]	297

Q. Supply reported apparent KD of MS2 coat protein belonging to this sequence: AAGACGCCGGGAAGGAGCGCAUCCAAACCACACAUGAGGAUCACCCAUGUAUAAAUAUGCAUGCAGGUAGGUCGCCCGAUGUCCC [Orbemative]
A. 42.6

Q. Name the recorded apparent KD of MS2 coat protein of the sequence listed here: GUAUACAUGAGGAUCACCCAUGUACCAGAAGGAGCGCUGGAAACAGCAGGUAGGUCGCUGGUAGGUCCUCUAUCUAGACGUUCGG [EAA NP+V+V2 #4]
A. 201

Q. Give the reported value of apparent KD of MS2 coat protein for this record: UUAAUCAUUAUAGAAAACUAUAAUGCAGAAGGAGCGUGAUAAAACACAGGUAGGUCGCUGAAGGGAACAUGAGGAUCACCCAUGU [AstrosSSArgA#6]
A. 39.4

* * *

- Test system: K4 kissing-loop RNA reporter;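 also: bound reporter read as fluorescence of individual clusters on recovered sequencing chips by microscopy, with normalized cluster intensities fitted with a binding model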
- Protocol Details: apparent KD of K4 kissing-loop reporter; higher = weaker reporter binding
- Condition Parameters: Eterna round: R107; input ligand: none
apparent KD of K4 kissing-loop reporter values, listed per item
Only the number, expressed in nM, is required.

The cases that follow already have their apparent KD of K4 kissing-loop reporter on record.
Residue Codes	Numeric Result
UUAGGAGUGGGAGGAUAUCCUGGUGUGGGUGAUGUUAGUGAUGUUGAAAGUGUAGUGAUGUUGUGCGGAGAAGGUCCAGUGUUGA [BDazzled - #10 - Exc. FMN B]	459
CUUCUUCUUCCAAUCUCGGCCAACACGGGACGAGGACCGGUACGGCCGCCACUCGUGCAGUGAUGUUGCACGAUGGUGACGGAGA [Engebiisso]	84.6
CGGUAGUCUAUAGGGUCCAGUGAUGUUGGACAGGAUAUGCUACGCCGCAGAAGGGUCCAACUGGUUGUGAAGUUGGCUACUAGGC [Somaaxe]	168
AGUGUUAGGUUAGAUACCAGCCGUCUGUGGAUAAUCCUCAGACCGCCAGUGAUGUUGGCAGGCCCUUGGCAGCUAACAGGACAGA [Mavebius]	272
UCGCCAAAGUCGGCCGCCACUCCGGGCCCUAUAAAUGGGCGCAGUGAUGUUGCGGCUAGGCCUCUGAGGACCGGGACUUUGUAGA [Esenusza]	152

Q. For AUUCAGAUCUGAAGGAGCGCGUUGACAUAUUGCUUCAUUGAGCAGUGAUGUUGCUCAGUAACGCAGGUAGGUCGCAGAUCUGGCC [Arg B Ex t7a] , write its apparent KD of K4 kissing-loop reporter.
A. 99

Q. Find the measured apparent KD of K4 kissing-loop reporter of ACCAUCAAAGAUGGCCAGGACUCAACUGAUACCAGAGUGAAAACACUCCCUUGGCAGCAGGUGAGUGAUGUUCACGAGUCCUGGA [Omel KL Theo A SS B v7] and report it.
A. 215

Q. Report apparent KD of K4 kissing-loop reporter for UGAUUUAACUGAAGGAGCGGCAAUUGAUAAGUAAAUAUAGUGAUGUUAUAUAAGAUAGAGAGCCAGGUAGGUCGCAGAGGUAGGA [ExArgB.K]
A. 152

Q. Kindly indicate its recorded apparent KD of K4 kissing-loop reporter. Item: UGACUGGACUGAAGGAGCGCUAAACUCCUAGUGAUGUUAGGAAAACGAGACAAAGUCUCGAGGCAGGUAGGUCGCAGUCUAGUCU [ArgBS 18 #SwitchBubble #StaticStem]
A. 136

Q. Check the records and state apparent KD of K4 kissing-loop reporter for AGAGUUAUGCGAGGAUAUGCAGUUAGUACUCAAAGAGUACUAACAGCAGAGUGAUGUUCUGUGAAAGCAGAAGGUGCAUAACUCA [Omei KL FMN B SS B v7]
A. 1120

* * *

apparent KD of MS2 coat protein by entry:
- Tested on: MS2 coat protein
- Protocol Details: apparent KD of MS2 coat protein; designed switch direction (-1 OFF switch, 1 ON switch): -1; higher = weaker reporter binding
- Condition Parameters: input ligand: FMN 200 uM

Here are 5 sequences together with their reported answers.
Residue Codes	apparent KD of MS2 coat protein
UGAGCUUACGUAGGAUAUGAGGAUCACCCAUAGAAGGAUAUCGAAAGAGAAGGUCUGAGGAUUACCCAGAAGGACGUGGGCUCU [pwkr exNG2 2xF5 2xFMN.12] (Eterna round: R96, puzzle: Exclusion NG 2)	732 nM
ACUUAUUGAGGAUAUACAUUAAAUUACAUGAGGAUCACCCAUGUUCUUCAAUGUAUAUAUGCAGAAGGCAGAAGAA [JL-ex5-4.28 Malcolm mod] (Eterna round: R97, puzzle: Exclusion 5)	13.4 nM
GCGCGAAGCAAGGAUAUCCCAGGGAGCUCCCUGGGAGAAGGUGCCACAUGAGGAUCACCCAUGUGGUGAUCCUG [eternacac ex6r4 sub16] (Eterna round: R97, puzzle: Exclusion 6)	25.6 nM
UUAGCGUAUGUAAGGAUAUGCUGGUCUAAUGAUCAGCAGAAGGUACAUGAGGAUCACCCAUGUGUAUUCGUUAU [Mod of JL 7 - Jieux - Brourd's mod of Exclusion 4] (Eterna round: R97, puzzle: Brourd's mod of Exclusion 4)	75.9 nM
GUACUGACAGGAUAUACAUGAGGAUCACCCAUGUGCCUUAUCGCUACAAAAGUAGCGAGUAGAAGGGUCUGUAC [Omei Ex3 Model Bachelor's Dilema v18] (Eterna round: R97, puzzle: Exclusion 3)	27.1 nM

Query sequence follows.
Q. Output measured apparent KD of MS2 coat protein for this item: UUAAUACAUGUAGGAUAUGCGUGGCGAAGCUAUGCAGAAGGACAUGAGGAUCACCCAUGUUCUUGCGUCCGCGUACGGAUGCAA [JL Eng1 1.21 mod 4] (Eterna round: R96, puzzle: Exclusion NG 1)
A. 29.4 nM
